- assay_overview: Cell viability assay (CCK-8)
- Format: cell-based
pIC50: −log10 of the molar value.

| chemical_smiles | pIC50 |
| --- | --- |
| CC1(C)C(=CC=C2CCCC(C=CC3=[N+](CCC[N+](C)(C)C)c4ccc(S(=O)(=O)O)cc4C3(C)C)=C2SCCOCCOCCC(=O)NCCCC[C@@H]2NC(=O)[C@@H](Cc3ccc(O)cc3)NC(=O)[C@H](CC(=O)O)NC(=O)CNC(=O)[C@H](CCCNC(=N)N)NC2=O)N(CCC[N+](C)(C)C)c2ccc(S(=O)(=O)O)cc21 | 4.34 |

* * *

recorded_endpoint: fluorescence maximum

| chemical_smiles | result |
| --- | --- |
| CC1(C)C(=CC=C2CCCC(C=CC3=[N+](CCC[N+](C)(C)C)c4ccc(S(=O)(=O)O)cc4C3(C)C)=C2SCCOCCOCCC(=O)NCCCC[C@@H]2NC(=O)[C@@H](Cc3ccc(O)cc3)NC(=O)[C@H](CC(=O)O)NC(=O)CNC(=O)[C@H](CCCNC(=N)N)NC2=O)N(CCC[N+](C)(C)C)c2ccc(S(=O)(=O)O)cc21 | 809 nm |
